# method_description: Permeability by PAMPA
# Type: ADME
observable: Papp (×10⁻⁶ cm/s)

compound: CC(C)(C)[C@@H]1NC(=O)O[C@@H]2CCC[C@H]2OC/C=C/C(F)(F)c2nc3ccccc3nc2O[C@@H]2C[C@@H](C(=O)N[C@]3(C(=O)NS(=O)(=O)C4(C)CC4)C[C@H]3C(F)F)N(C2)C1=O [GLECAPREVIR]
observable: Papp
measured: 5.2

====

# method_description: AUC in CD1 mouse assessed as pibrentasvir1 level at 3 mg/kg, po measured up to 24 hrs
# Format: ADME, organism-based
# Set-up: route oral, dose 3 mg/kg, time <=24
# assay_context: in vivo
AUC reference
observable: AUC (ng·h/mL)

compound_smiles: COC(=O)N[C@H](C(=O)N1CCC[C@H]1c1nc2cc([C@H]3CC[C@H](c4cc5nc([C@@H]6CCCN6C(=O)[C@@H](NC(=O)OC)[C@@H](C)OC)n(COP(=O)(O)O)c5cc4F)N3c3cc(F)c(N4CCC(c5ccc(F)cc5)CC4)c(F)c3)c(F)cc2n1COP(=O)(O)O)[C@@H](C)OC
measured: 6070

compound_smiles: COC(=O)N[C@H](C(=O)N1CCC[C@H]1c1nc2cc(F)c([C@H]3CC[C@H](c4cc5c(cc4F)nc([C@@H]4CCCN4C(=O)[C@@H](NC(=O)OC)[C@@H](C)OC)n5COP(=O)(O)O)N3c3cc(F)c(N4CCC(c5ccc(F)cc5)CC4)c(F)c3)cc2n1COP(=O)(O)O)[C@@H](C)OC
measured: 353

compound_smiles: COC(=O)N[C@H](C(=O)N1CCC[C@H]1c1nc2cc(F)c([C@H]3CC[C@H](c4cc5nc([C@@H]6CCCN6C(=O)[C@@H](NC(=O)OC)[C@@H](C)OC)n(COC(=O)[C@@H](N)C(C)C)c5cc4F)N3c3cc(F)c(N4CCC(c5ccc(F)cc5)CC4)c(F)c3)cc2[nH]1)[C@@H](C)OC
measured: 2340

====

# method_description: Aqueous solubility of compound at pH 2
# Format: physicochemical

compound_smiles: COC(=O)N[C@H](C(=O)N1CCC[C@H]1c1nc2cc([C@H]3CC[C@H](c4cc5nc([C@@H]6CCCN6C(=O)[C@@H](NC(=O)OC)[C@@H](C)OC)[nH]c5cc4F)N3c3cc(F)c(N4CCC(c5ccc(F)cc5)CC4)c(F)c3)c(F)cc2[nH]1)[C@@H](C)OC
solubility: 420 µg/mL
--
compound_smiles: CC(C)(C)[C@@H]1NC(=O)O[C@@H]2CCC[C@H]2OC/C=C/C(F)(F)c2nc3ccccc3nc2O[C@@H]2C[C@@H](C(=O)N[C@]3(C(=O)NS(=O)(=O)C4(C)CC4)C[C@H]3C(F)F)N(C2)C1=O
solubility: < 100 µg/mL

====

Stabilty reference
# method_description: Stability of compound at pH 1 assessed as prodrug remaining level at 125 ug/ml incubated for 24 hrs by HPLC analysis
# Type: physicochemical
# assay_context: buffer, pH 1, 24 h, at 125 µg/mL
observable: Stabilty (%)

compound_smiles: COC(=O)N[C@H](C(=O)N1CCC[C@H]1c1nc2cc(F)c([C@H]3CC[C@H](c4cc5nc([C@@H]6CCCN6C(=O)[C@@H](NC(=O)OC)[C@@H](C)OC)n(COC(=O)N(C)c6ncccc6COP(=O)(O)O)c5cc4F)N3c3cc(F)c(N4CCC(c5ccc(F)cc5)CC4)c(F)c3)cc2[nH]1)[C@@H](C)OC
unit_of_measure: %
measured: 92
--
compound_smiles: COC(=O)N[C@H](C(=O)N1CCC[C@H]1c1nc2cc(F)c([C@H]3CC[C@H](c4cc5c(cc4F)nc([C@@H]4CCCN4C(=O)[C@@H](NC(=O)OC)[C@@H](C)OC)n5COC(=O)c4ccccc4COP(=O)(O)O)N3c3cc(F)c(N4CCC(c5ccc(F)cc5)CC4)c(F)c3)cc2[nH]1)[C@@H](C)OC
unit_of_measure: %
measured: 98
--
compound_smiles: COC(=O)N[C@H](C(=O)N1CCC[C@H]1c1nc2cc(F)c([C@H]3CC[C@H](c4cc5nc([C@@H]6CCCN6C(=O)[C@@H](NC(=O)OC)[C@@H](C)OC)n(COC(=O)CC(C)(C)c6c(C)cc(C)cc6OP(=O)(O)O)c5cc4F)N3c3cc(F)c(N4CCC(c5ccc(F)cc5)CC4)c(F)c3)cc2[nH]1)[C@@H](C)OC
unit_of_measure: %
measured: 87
--
compound_smiles: COC(=O)N[C@H](C(=O)N1CCC[C@H]1c1nc2cc([C@H]3CC[C@H](c4cc5nc([C@@H]6CCCN6C(=O)[C@@H](NC(=O)OC)[C@@H](C)OC)n(COP(=O)(O)O)c5cc4F)N3c3cc(F)c(N4CCC(c5ccc(F)cc5)CC4)c(F)c3)c(F)cc2n1COP(=O)(O)O)[C@@H](C)OC
unit_of_measure: %
measured: 100
--
compound_smiles: COC(=O)N[C@H](C(=O)N1CCC[C@H]1c1nc2cc(F)c([C@H]3CC[C@H](c4cc5nc([C@@H]6CCCN6C(=O)[C@@H](NC(=O)OC)[C@@H](C)OC)n(COC(=O)[C@@H](NC(=O)OCOP(=O)(O)O)C(C)C)c5cc4F)N3c3cc(F)c(N4CCC(c5ccc(F)cc5)CC4)c(F)c3)cc2[nH]1)[C@@H](C)OC
unit_of_measure: %
measured: 95
--
compound_smiles: COC(=O)N[C@H](C(=O)N1CCC[C@H]1c1nc2cc(F)c([C@H]3CC[C@H](c4cc5c(cc4F)nc([C@@H]4CCCN4C(=O)[C@@H](NC(=O)OC)[C@@H](C)OC)n5COC(=O)CCCOP(=O)(O)O)N3c3cc(F)c(N4CCC(c5ccc(F)cc5)CC4)c(F)c3)cc2[nH]1)[C@@H](C)OC
unit_of_measure: %
measured: 76
